# System: Saccharomyces cerevisiae;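 note: PSI is a weighted mean of sequencing reads over stability bins, variants kept only with over 10 reads, mCherry proximal and sfGFP distal, peptide attached via GGGS linker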
# Experiment: protein stability index of tFT-peptide fusion (C-terminal peptide) (PSI (0-1 scale)); higher = more stable (slower turnover)
# Condition Details: genetic background: das1 deletion; temperature: 37 C
# label = met if protein stability index >= 0.5 else not met

sequence_string=PLPCFVLRLPVF assigned_class="not met"
sequence_string=LVPVWVGLRVLF assigned_class=met
sequence_string=TDSSWEVSLMVG assigned_class=met
sequence_string=AQCRGGGLSGVG assigned_class=met
sequence_string=FGALVVCFLTRC assigned_class=met
sequence_string=LLFTFSLSFFFR assigned_class="not met"
sequence_string=SMPWFWFVRGIG assigned_class=met
sequence_string=CFFGFRAGLFLG assigned_class=met
sequence_string=IRACGCSFLWVC assigned_class=met
sequence_string=VGDIRSFALWYA assigned_class=met
sequence_string=SFIFFVSCFFIF assigned_class="not met"
sequence_string=TKKGQTRPSRTD assigned_class=met
sequence_string=YILRLMMEGICL assigned_class="not met"
sequence_string=GGGGMGRRVGVG assigned_class="not met"
sequence_string=ALRGLWFPFSCL assigned_class=met
sequence_string=LFTRWSILFKLF assigned_class=met
sequence_string=PLPSFLYFILLR assigned_class="not met"
sequence_string=FSFSFWALLWFP assigned_class=met
sequence_string=TGPLVHLLCCCV assigned_class="not met"
sequence_string=WVSFFILYCVYR assigned_class="not met"
sequence_string=GKGVFGGLFFLV assigned_class=met
sequence_string=ALFLLWVVMHDV assigned_class="not met"
sequence_string=RFLPYLPTPLSP assigned_class=met
sequence_string=AVCVVVMAVFVG assigned_class="not met"
sequence_string=WISDRCPSVLCY assigned_class="not met"
sequence_string=FLSLVIVLRWFL assigned_class="not met"
sequence_string=REGDLLKFKMRP assigned_class=met
sequence_string=VLSCVWFVVVGV assigned_class="not met"
sequence_string=RRVRVVCVIVAA assigned_class="not met"
sequence_string=PTLPASLHSIYP assigned_class=met
sequence_string=FSMRWTFRYWVN assigned_class=met
sequence_string=RGGVLYVSIRCK assigned_class="not met"
sequence_string=DVLLVVVLGRFL assigned_class=met
sequence_string=FSSFLGFIRFFV assigned_class=met
sequence_string=VCLRICLVTLMM assigned_class="not met"
sequence_string=RLFIIYLLNIQG assigned_class=met
sequence_string=GFLAVTVACVWR assigned_class="not met"
sequence_string=LFSFFVFFFLLD assigned_class=met
sequence_string=MLSVVSFVSCTC assigned_class="not met"
sequence_string=GRVCWVVLAGLV assigned_class=met
sequence_string=PFRSAYYLLFLL assigned_class=met
sequence_string=VYQAFIFRMSLF assigned_class=met
sequence_string=FALFCFVIFMSR assigned_class="not met"
sequence_string=LSACYSRYVFVS assigned_class=met
sequence_string=PFARIIDILLVI assigned_class=met
sequence_string=SLARLRRICFNT assigned_class=met
sequence_string=SPSTPQALSNFS assigned_class=met
sequence_string=FMRKLVVLVVLG assigned_class="not met"
sequence_string=SYFASLLDLFTA assigned_class=met
sequence_string=IKRLKEVARHVS assigned_class=met
sequence_string=VLILFFLVVFYV assigned_class="not met"
sequence_string=LLFLLSPFNFAV assigned_class=met
sequence_string=HPPPPPPPPSLS assigned_class=met
sequence_string=FGVRRSFVVFVV assigned_class=met
sequence_string=LFFFVFFVLFSV assigned_class="not met"
sequence_string=WVGWVVVLGCVG assigned_class="not met"
sequence_string=FMVYRIHSSAVM assigned_class="not met"
sequence_string=YCSIQIQLVYGI assigned_class="not met"
sequence_string=LRCRAATSRTVS assigned_class=met
sequence_string=RCLHTSVFLIFP assigned_class=met
sequence_string=CRGLSWRMITCL assigned_class=met
sequence_string=GPRRARLPNFLA assigned_class=met
sequence_string=KSSIGVWTLLIR assigned_class="not met"
sequence_string=GCWRVELLVFMC assigned_class="not met"
sequence_string=VRWLVFFLFLFG assigned_class=met
sequence_string=FFVMVFTVEVFV assigned_class="not met"
sequence_string=MFFSWVLSISLT assigned_class="not met"
sequence_string=LRPTFLLLFRPL assigned_class="not met"
sequence_string=RCCWWNAQAVWR assigned_class=met
sequence_string=VFLYVYAVWFLV assigned_class="not met"
sequence_string=SISVQCSMLRVL assigned_class="not met"
sequence_string=FLFSSLFCFLFL assigned_class=met
sequence_string=SFFYFVFYYLSF assigned_class="not met"
sequence_string=RLLSIFKILHVG assigned_class=met
sequence_string=PFVATRVSCFLT assigned_class=met
sequence_string=PAPANRPTPRPV assigned_class=met
sequence_string=IFAVLVSGSFFF assigned_class=met
sequence_string=FFVWLGWGMFYG assigned_class=met
